assay: Inhibitory activity against trypsin
pKi: −log10 of the molar value.
Reported values of pKi for individual entries
parameter.measured: pKi

• CCOC(=O)[C@H](C)NC(=O)[C@H](Cc1ccccc1)C(=O)Nc1ccc2c(c1)OCC(=O)N2Cc1ccc(C(=N)N)cc1 = 5.02
• CCOC(=O)C[C@H](NC(=O)c1ccc2c(c1)OC(OCc1ccc(C(=N)N)cc1)C(=O)N2C)c1ccccc1 (stereo partly drawn) = 4.80
• N=C(N)c1ccc(CN2C(=O)COc3cc(NC(=O)C(Cc4ccccc4)C(=O)N[C@@H](CCC(=O)O)C(=O)O)ccc32)cc1 (stereo partly drawn) = 4.75

----------
test: Inhibitory activity against trypsin
pKi: −log10 of the molar value.
parameter.measured: pKi

• COC(=O)C(Cc1ccccc1)C(=O)Nc1ccc2c(c1)OCC(=O)N2Cc1ccc(C(=N)N)cc1 (stereo not drawn) = 5.28
• N=C(N)c1ccc(CN2C(=O)COc3cc(NC(=O)C(Cc4ccccc4)C(=O)O)ccc32)cc1 (stereo not drawn) = 5.26
• CCOC(=O)[C@H](C)NC(=O)C(Cc1ccccc1)C(=O)Nc1ccc2c(c1)OCC(=O)N2Cc1ccc(C(=N)N)cc1 (stereo partly drawn) = 4.92
• CN1C(=O)C(OCc2ccc(C(=N)N)cc2)Oc2cc(C(=O)N[C@@H](CC(=O)O)c3ccccc3)ccc21 (stereo partly drawn) = 4.58
• CCOC(=O)CC[C@H](NC(=O)[C@H](Cc1ccccc1)C(=O)Nc1ccc2c(c1)OCC(=O)N2Cc1ccc(C(=N)N)cc1)C(=O)OCC = 4.34
• CCOC(=O)[C@H](Cc1ccccc1)C(=O)Nc1ccc2c(c1)OCC(=O)N2Cc1ccc(C(=N)N)cc1 = 5.26
• CCOC(=O)CC[C@H](NC(=O)C(Cc1ccccc1)C(=O)Nc1ccc2c(c1)OCC(=O)N2Cc1ccc(C(=N)N)cc1)C(=O)OCC (stereo partly drawn) = 4.98
• CCOC(=O)CNC(=O)C(Cc1ccccc1)C(=O)Nc1ccc2c(c1)OCC(=O)N2Cc1ccc(C(=N)N)cc1 (stereo not drawn) = 5.08
